# ASSAY DETAILS: Solubility of the compound in physiological saline at 1 mg
# Format: physicochemical
# SETTINGS: buffer
READOUT LABEL: solubility

Past entries and their recorded results:
Query: Data request, read-out solubility, for COc1ccc(N(C)c2cc(C)nc3ccccc23)cc1NC(=O)CN(C)CCC#N
Result: Insoluble

Query: And then COc1ccc(N(C)c2cc(C)nc3ccccc23)cc1NC(=O)CNCCNc1ccccc1 , what is it?
Result: Insoluble

Query: And then CCCC(=O)Nc1cc(N(C)c2cc(C)nc3ccccc23)ccc1OC , what is it?
Result: Insoluble

Query: And then COC(=O)C(=O)Nc1cc(N(C)c2cc(C)nc3ccccc23)ccc1OC , what is it?
Result: Insoluble

Further cases:
Query: Data request, read-out solubility, for COc1ccc(N(C)c2cc(Cl)nc3ccccc23)cc1
Result: Insoluble

Query: And then COc1ccc(N(C)c2cc(C)nc3ccccc23)cc1NC(=O)CN1CCCC(C)C1 (stereo not given) , what is it?
Result: Insoluble

Query: And then COc1ccc(N(C)c2cc(C)nc3ccccc23)cc1N , what is it?
Result: Insoluble

Query: And then COc1ccc(N(C)c2cc(Cl)nc3ccccc23)cc1N , what is it?
Result: Insoluble

Query: And then CCOC(=O)C(=O)Nc1cc(N(C)c2cc(C)nc3ccccc23)ccc1OC , what is it?
Result: Soluble

Query: And then CSc1ccc(N(C)c2cc(C)nc3ccccc23)cc1N , what is it?
Result: Soluble

Query: And then COc1ccc(N(C)c2cc(C)nc3ccccc23)cc1NC(=O)CCCCCl , what is it?
Result: Insoluble
